test: Solubility in phosphate buffer at pH 7.4 by HPLC analysis; assay type: physicochemical
solubility overview
Report the figure in mg/mL without appending any unit label.

The cases that follow already have their solubility on record.
                                smiles_text  property_name  unit_label  numeric_readout
0  COc1cccc(C2(C(=O)[N-]S(=O)(=O)Oc3c(C(C)C)cccc3C(C)C)CCN(c3ncccn3)CC2)c1.[Na+]     solubility       mg/mL             0.23
1  COc1cccc(C2(C(=O)NS(=O)(=O)Oc3c(C(C)C)cccc3C(C)C)CCN(c3ccccc3)CC2)c1     solubility       mg/mL             0.18
2  COc1cccc(C2(C(=O)NS(=O)(=O)Oc3c(C(C)C)cccc3C(C)C)CCN(c3nc4ccccc4s3)CC2)c1     solubility       mg/mL            0.003

We next turn to a different compound, shown below.
Entry under review: `CC(C)c1cccc(C(C)C)c1OS(=O)(=O)NC(=O)C1(c2cccc(O)c2)CCN(c2ncccn2)CC1` . Reported solubility? 0.2
